molecular target: FKBP12 (Homo sapiens); construct: 6His-SUMO (N, cleaved yes); made in house; host or cells: E. coli (identical protocol to FBD35, BL21 DE3); experiment: Fluorescence polarization competition, FKBP12; format: binding; conditions: fluorescence polarization, competitive inhibition model; read-out: FKBP12 IC50
recorded_metric: IC50

Answered examples (3):
CCC(C)(C)C(=O)C(=O)N1CCCC[C@H]1C(=O)O[C@H](CCc1ccc(OC)c(OC)c1)c1cccc(OCC(=O)O)c1 [SLFb, reference compound] : 0.027 µM
C=CC(=O)Nc1ccccc1C(=O)C(=O)N1CCCC[C@H]1C(=O)O[C@H](CCc1ccc(OC)c(OC)c1)c1ccccc1 : > 30 µM
C=CC(=O)Nc1cc(OC)ccc1C(=O)C(=O)N1CCCC[C@H]1C(=O)O[C@H](CCc1ccc(OC)c(OC)c1)c1ccccc1 : > 30 µM

Would you kindly look at the next entry?
Given C=CC(=O)Nc1ccccc1[C@@H](CCc1ccc(OC)c(OC)c1)OC(=O)[C@@H]1CCCCN1C(=O)C(=O)c1cc(OC)c(OC)c(OC)c1 , state its recorded IC50.
3.27 µM

---

target: FBD35 (PfFKBP35 binding domain) (Plasmodium falciparum); construct: FKBP35 Q5 -A128; 6His-SUMO (N, cleaved yes); made in house; host or cells: E. coli BL21 DE3; assay: Fluorescence polarization competition, FBD35
recorded_metric: log10 IC50 (log10 of the value in nM)
Units before log transform: nM; reported quantity: IC50; transform: log10.

Record excerpt, results attached:
C=CC(=O)Nc1ccccc1[C@@H](CCc1ccc(OC)c(OC)c1)OC(=O)[C@@H]1CCCCN1C(=O)C(=O)C(C)(C)CC [1c] : 3.45
CCC(=O)Nc1cccc([C@@H](CCc2ccc(OC)c(OC)c2)OC(=O)[C@@H]2CCCCN2C(=O)C(=O)C(C)(C)CC)c1 [1b] : 1.88
C=CC(=O)NCCCC(=O)N1CCCC[C@H]1C(=O)O[C@H](CCc1ccc(OC)c(OC)c1)c1ccccc1 [2e] : 3.42
C=CC(=O)NCC(C)(C)C(=O)C(=O)N1CCCC[C@H]1C(=O)O[C@H](CCc1ccc(OC)c(OC)c1)c1ccccc1 [2a] : 2.02

Would you mind telling me what log10 IC50 value was observed for CCC(C)(C)C(=O)C(=O)N1CCCC[C@H]1C(=O)O[C@H](CCc1ccc(OC)c(OC)c1)c1cccc(N)c1 [SLF, reference compound] ?
2.25

Recorded log10 IC50 for CCC(=O)OCC(C)(C)C(=O)C(=O)N1CCCC[C@H]1C(=O)O[C@H](CCc1ccc(OC)c(OC)c1)c1ccccc1 [2d] , please?
2.00

Using the record for CCC(=O)NCC(C)(C)C(=O)C(=O)N1CCCC[C@H]1C(=O)O[C@H](CCc1ccc(OC)c(OC)c1)c1ccccc1 [2b] , report its log10 IC50.
1.96

---

experiment: Cell viability assay (CellTiter-Glo); type: cell-based; details: human, HEK293T cells; HEK293T, 72 hour treatment; read-out: IC50 cell viability
recorded_metric: IC50 at 72 h (µM)
Provide only the numeric value, understood in µM.

Give its IC50 at 72 h value. Item: CO[C@H]1C[C@@H]2CC[C@@H](C)[C@@](O)(O2)C(=O)C(=O)N2CCCC[C@H]2C(=O)O[C@H]([C@H](C)C[C@@H]2CC[C@@H](O)[C@H](OC)C2)CC(=O)[C@H](C)/C=C(\C)[C@@H](O)[C@@H](OC)C(=O)[C@H](C)C[C@H](C)/C=C/C=C/C=C/1C [Rapamycin, reference compound]
63

---

target: FBD35 (PfFKBP35 binding domain) (Plasmodium falciparum, UniProt Q8I4V8); construct: FKBP35 Q5 -A128; 6His-SUMO (N, cleaved yes); made in house; host or cells: E. coli BL21 DE3; test: Fluorescence polarization competition, FBD35
Sequence (Q8I4V8 5-128): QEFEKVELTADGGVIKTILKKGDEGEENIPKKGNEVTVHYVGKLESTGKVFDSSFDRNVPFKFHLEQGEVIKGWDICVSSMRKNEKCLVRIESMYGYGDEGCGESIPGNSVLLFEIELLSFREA
IC50 less than 200 nM is true (1); IC50 greater than or equal to 200 nM is false (0).

# count of solved cases: 3
C=CC(=O)OCC(C)(C)C(=O)C(=O)N1CCCC[C@H]1C(=O)O[C@H](CCc1ccc(OC)c(OC)c1)c1cccc(OCC(=O)O)c1 : true (1)
CCC(C)(C)C(=O)C(=O)N1CCCC[C@H]1C(=O)O[C@H](CCc1ccc(OC)c(OC)c1)c1cccc(OCC(=O)O)c1 [SLFb, reference compound] : false (0)
C=CC(=O)Nc1ccc([C@@H](CCc2ccc(OC)c(OC)c2)OC(=O)[C@@H]2CCCCN2C(=O)C(=O)C(C)(C)CC)cc1 : true (1)

Alright, here's another compound for you.
Does the reported IC50 of C=CC(=O)OCC(C)(C)C(=O)C(=O)N1CCCC[C@H]1C(=O)O[C@H](CCc1ccc(OC)c(OC)c1)c1ccccc1 stay below 200 nM?
false (0)

---

target: FKBP12 (Homo sapiens, UniProt P62942); construct: 6His-SUMO (N, cleaved yes); made in house; host or cells: E. coli (identical protocol to FBD35, BL21 DE3); experiment: Differential scanning calorimetry, FKBP12; type: binding; conditions: compound 40 µM
Sequence (P62942 whole entry): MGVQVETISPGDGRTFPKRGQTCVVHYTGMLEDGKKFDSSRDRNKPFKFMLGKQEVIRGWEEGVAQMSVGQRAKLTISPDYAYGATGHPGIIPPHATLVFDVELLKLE
Listing of recorded ΔTm at 40 µM by entry.
Please respond with the number in °C and leave the unit unwritten.

Worked examples, 10 molecules total:
C=CC(=O)NCCCC(=O)N1CCCC[C@H]1C(=O)O[C@H](CCc1ccc(OC)c(OC)c1)c1ccccc1 : 7.9
C=CC(=O)OCC(C)(C)C(=O)C(=O)N1CCCC[C@H]1C(=O)O[C@H](CCc1ccc(OC)c(OC)c1)c1ccccc1 : 5.2
C=CC(=O)Nc1cccc([C@@H](CCc2ccc(OC)c(OC)c2)OC(=O)[C@@H]2CCCCN2C(=O)C(=O)C(C)(C)CC)c1 : 5.6
C=CC(=O)Nc1ccc([C@@H](CCc2ccc(OC)c(OC)c2)OC(=O)[C@@H]2CCCCN2C(=O)C(=O)C(C)(C)CC)cc1 : 6
C=CC(=O)Nc1ccccc1C(=O)C(=O)N1CCCC[C@H]1C(=O)O[C@H](CCc1ccc(OC)c(OC)c1)c1ccccc1 : 0.2
CCC(=O)NCC(C)(C)C(=O)C(=O)N1CCCC[C@H]1C(=O)O[C@H](CCc1ccc(OC)c(OC)c1)c1ccccc1 : 7.7
CCC(C)(C)C(=O)C(=O)N1CCCC[C@H]1C(=O)O[C@H](CCc1ccc(OC)c(OC)c1)c1cccc(OCC(=O)O)c1 [SLFb, reference compound] : 6.6
C=CC(=O)NCC(C)(C)C(=O)C(=O)N1CCCC[C@H]1C(=O)O[C@H](CCc1ccc(OC)c(OC)c1)c1ccccc1 : 8.8
CCC(=O)Nc1cccc([C@@H](CCc2ccc(OC)c(OC)c2)OC(=O)[C@@H]2CCCCN2C(=O)C(=O)C(C)(C)CC)c1 : 6.8
CCC(C)(C)C(=O)C(=O)N1CCCC[C@H]1C(=O)O[C@H](CCc1ccc(OC)c(OC)c1)c1cccc(N)c1 [SLF, reference compound] : 0.4

Item C=CC(=O)Nc1ccccc1[C@@H](CCc1ccc(OC)c(OC)c1)OC(=O)[C@@H]1CCCCN1C(=O)C(=O)c1cc(OC)c(OC)c(OC)c1 has what recorded ΔTm at 40 µM?
1.4

Find the recorded ΔTm at 40 µM belonging to C=CC(=O)Nc1cc(OC)ccc1C(=O)C(=O)N1CCCC[C@H]1C(=O)O[C@H](CCc1ccc(OC)c(OC)c1)c1ccccc1 and report it.
0.1

# ΔTm at 40 µM lookup, item C=CC(=O)OCC(C)(C)C(=O)C(=O)N1CCCC[C@H]1C(=O)O[C@H](CCc1ccc(OC)c(OC)c1)c1cccc(OCC(=O)O)c1
6.2

Entry under review: C=CC(=O)Nc1ccccc1[C@@H](CCc1ccc(OC)c(OC)c1)OC(=O)[C@@H]1CCCCN1C(=O)C(=O)C(C)(C)CC . Reported ΔTm at 40 µM?
3.2

GET /values?readout=ΔTm at 40 µM&item= C=CC(=O)Nc1cccc([C@@H](CCc2ccc(OC)c(OC)c2)OC(=O)[C@@H]2CCCCN2C(=O)C(=O)c2cc(OC)c(OC)c(OC)c2)c1
4.9

What does the record list as ΔTm at 40 µM for CCC(=O)OCC(C)(C)C(=O)C(=O)N1CCCC[C@H]1C(=O)O[C@H](CCc1ccc(OC)c(OC)c1)c1ccccc1 ?
5.9

---

target: FBD35 (PfFKBP35 binding domain) (Plasmodium falciparum, UniProt Q8I4V8); construct: FKBP35 Q5 -A128; 6His-SUMO (N, cleaved yes); made in house; host or cells: E. coli BL21 DE3; test: Differential scanning calorimetry, FBD35; settings: read-out: FBD35 ΔTM
// label = Met if ΔTm at 40 µM is not less than 4 °C, otherwise Not met

Worked examples, 6 compounds total:
CCC(=O)NCC(C)(C)C(=O)C(=O)N1CCCC[C@H]1C(=O)O[C@H](CCc1ccc(OC)c(OC)c1)c1ccccc1 : Met
CCC(=O)Nc1cccc([C@@H](CCc2ccc(OC)c(OC)c2)OC(=O)[C@@H]2CCCCN2C(=O)C(=O)C(C)(C)CC)c1 : Not met
C=CC(=O)NCCCC(=O)N1CCCC[C@H]1C(=O)O[C@H](CCc1ccc(OC)c(OC)c1)c1ccccc1 : Met
C=CC(=O)Nc1ccc([C@@H](CCc2ccc(OC)c(OC)c2)OC(=O)[C@@H]2CCCCN2C(=O)C(=O)C(C)(C)CC)cc1 : Not met
C=CC(=O)Nc1cccc([C@@H](CCc2ccc(OC)c(OC)c2)OC(=O)[C@@H]2CCCCN2C(=O)C(=O)C(C)(C)CC)c1 : Met
C=CC(=O)NCC(C)(C)C(=O)C(=O)N1CCCC[C@H]1C(=O)O[C@H](CCc1ccc(OC)c(OC)c1)c1ccccc1 : Met

Given the entry C=CC(=O)OCC(C)(C)C(=O)C(=O)N1CCCC[C@H]1C(=O)O[C@H](CCc1ccc(OC)c(OC)c1)c1cccc(OCC(=O)O)c1 , answer whether its ΔTm at 40 µM meets or surpasses 4 °C.
Met
